- system-under-test: T1, TrkA (UniProt P04629 34-413, limits assumed)
- T1 construct: also called NTRK1; TrkA receptor
- T1 sequence (P04629 34-413 limits assumed): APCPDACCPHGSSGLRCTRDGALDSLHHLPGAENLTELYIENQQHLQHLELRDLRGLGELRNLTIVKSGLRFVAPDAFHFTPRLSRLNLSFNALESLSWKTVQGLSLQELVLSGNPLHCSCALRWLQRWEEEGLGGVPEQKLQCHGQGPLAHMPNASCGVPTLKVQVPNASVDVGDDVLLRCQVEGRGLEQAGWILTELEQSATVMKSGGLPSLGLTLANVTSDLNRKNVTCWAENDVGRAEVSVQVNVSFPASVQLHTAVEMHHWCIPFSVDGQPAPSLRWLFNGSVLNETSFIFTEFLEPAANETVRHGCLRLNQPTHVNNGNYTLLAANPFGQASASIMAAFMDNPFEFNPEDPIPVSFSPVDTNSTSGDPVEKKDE
- experimental-details: SPR (BIAlite), receptor amine-coupled on CM4 chip, ligand injected, 25 C
readout-name: Kd (µM)
The reply should be a number in µM, with the unit left off.

get_value(item= CVLSRKAVRRA [NGF-C2] , readout=Kd) returns 0.727
